Record type: IC50 measurement. Applies to: UniProt O42275
recorded-endpoint: IC50

>  <compound-smiles>
COc1ccc(/C=C/C(=O)OCC2CCN(Cc3ccccc3)CC2)cc1O

>  <value-observed>
> 30 µM

$$$$
>  <compound-smiles>
COc1ccc(/C=C/C(=O)OCC2CCN(Cc3ccc([N+](=O)[O-])cc3)CC2)cc1O

>  <value-observed>
> 30 µM

$$$$
>  <compound-smiles>
COc1ccc(/C=C/C(=O)OCC2CCN(Cc3ccc(Br)cc3)CC2)cc1O

>  <value-observed>
> 30 µM

$$$$
>  <compound-smiles>
COc1ccc(CN2CCC(COC(=O)/C=C/c3ccc(O)c(OC)c3)CC2)cc1

>  <value-observed>
> 30 µM

$$$$
>  <compound-smiles>
COc1cc(/C=C/C(=O)OCC2CCN(Cc3ccc4c(c3)OCO4)CC2)ccc1O

>  <value-observed>
> 30 µM

$$$$
>  <compound-smiles>
COc1cc(/C=C/C(=O)OCC2CCN(Cc3ccc([N+](=O)[O-])cc3)CC2)ccc1O

>  <value-observed>
16.7 µM

$$$$
>  <compound-smiles>
COc1cc(/C=C/C(=O)OCC2CCN(Cc3ccccc3)CC2)ccc1O

>  <value-observed>
0.46 µM

$$$$
>  <compound-smiles>
COc1ccc(/C=C/C(=O)OCC2CCN(Cc3ccc4c(c3)OCO4)CC2)cc1O

>  <value-observed>
> 30 µM

$$$$
>  <compound-smiles>
COc1ccc(CN2CCC(COC(=O)/C=C/c3ccc(OC)c(O)c3)CC2)cc1

>  <value-observed>
> 30 µM

$$$$

----------
Target: Cholinesterase (Equus caballus, UniProt P81908)
Sequence (P81908 whole entry): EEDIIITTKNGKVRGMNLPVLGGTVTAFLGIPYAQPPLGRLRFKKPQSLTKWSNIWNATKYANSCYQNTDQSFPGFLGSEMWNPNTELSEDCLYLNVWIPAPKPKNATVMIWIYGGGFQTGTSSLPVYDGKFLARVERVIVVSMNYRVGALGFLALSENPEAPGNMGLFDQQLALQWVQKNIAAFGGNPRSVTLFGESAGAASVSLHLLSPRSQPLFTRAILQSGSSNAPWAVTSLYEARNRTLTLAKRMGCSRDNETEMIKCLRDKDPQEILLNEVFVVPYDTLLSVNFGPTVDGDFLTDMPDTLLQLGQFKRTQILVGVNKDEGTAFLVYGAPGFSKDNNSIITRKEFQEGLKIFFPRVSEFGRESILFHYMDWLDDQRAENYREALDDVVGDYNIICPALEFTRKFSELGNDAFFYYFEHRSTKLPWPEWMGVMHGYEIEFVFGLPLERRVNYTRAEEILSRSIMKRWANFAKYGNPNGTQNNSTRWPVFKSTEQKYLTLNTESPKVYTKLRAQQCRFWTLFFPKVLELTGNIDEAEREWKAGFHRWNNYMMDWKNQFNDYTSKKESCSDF
Experiment: Inhibition of equine serum BuChE using butyrylthiocholine iodide as substrate pretreated for 10 mins followed by substrate addition measured at 12 secs interval for 5 mins by Ellman's method
# IC50 per record follows

>  <compound-smiles>
COc1cc(/C=C/C(=O)CC(=O)/C=C/c2ccc(O)c(OC)c2)ccc1O

>  <IC50>
> 300 µM

$$$$
>  <compound-smiles>
COc1cc(/C=C/C(=O)OCC2CCN(Cc3ccccc3)CC2)ccc1O

>  <IC50>
25 µM

$$$$

----------
# cytotoxicity at 24 h, 40 µM per record follows
Assay: Cytotoxicity against human SH-SY5Y cells assessed as reduction in cell viability at 40 uM after 24 hrs by MTT assay relative to control
Type: cell-based
Settings: read-out: INH

>  <compound-smiles>
COc1cc(/C=C/C(=O)OCC2CCN(Cc3ccc([N+](=O)[O-])cc3)CC2)ccc1O

>  <cytotoxicity at 24 h, 40 µM>
9%

$$$$
>  <compound-smiles>
COc1cc(/C=C/C(=O)OCC2CCN(Cc3ccc(Br)cc3)CC2)ccc1O

>  <cytotoxicity at 24 h, 40 µM>
28%

$$$$
>  <compound-smiles>
COc1cc(/C=C/C(=O)OCC2CCN(Cc3ccccc3)CC2)ccc1O

>  <cytotoxicity at 24 h, 40 µM>
6%

$$$$

----------
Molecular target: Acetylcholinesterase (Electrophorus electricus)
Sequence (O42275 whole entry): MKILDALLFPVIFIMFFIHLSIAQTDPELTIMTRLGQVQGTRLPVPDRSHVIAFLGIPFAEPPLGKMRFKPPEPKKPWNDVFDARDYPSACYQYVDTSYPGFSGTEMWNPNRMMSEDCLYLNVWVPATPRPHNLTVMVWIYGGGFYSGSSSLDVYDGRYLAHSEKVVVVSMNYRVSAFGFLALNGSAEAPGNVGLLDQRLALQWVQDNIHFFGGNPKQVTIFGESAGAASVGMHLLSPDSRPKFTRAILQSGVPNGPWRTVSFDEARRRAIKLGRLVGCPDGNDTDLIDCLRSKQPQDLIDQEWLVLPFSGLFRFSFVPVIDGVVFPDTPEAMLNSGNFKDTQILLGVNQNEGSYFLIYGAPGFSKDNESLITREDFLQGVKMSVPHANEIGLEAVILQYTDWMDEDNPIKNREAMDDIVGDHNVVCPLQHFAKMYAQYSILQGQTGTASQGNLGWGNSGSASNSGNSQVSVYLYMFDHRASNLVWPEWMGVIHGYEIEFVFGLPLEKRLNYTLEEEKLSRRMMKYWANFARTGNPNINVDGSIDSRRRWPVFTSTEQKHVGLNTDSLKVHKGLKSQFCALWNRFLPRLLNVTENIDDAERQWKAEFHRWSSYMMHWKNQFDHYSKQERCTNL
pKi: −log10 of the molar value.

>  <compound-smiles>
COc1cc(/C=C/C(=O)OCC2CCN(Cc3ccccc3)CC2)ccc1O

>  <experimental-system>
Acetylcholinesterase (Electrophorus electricus)

>  <pKi>
5.98

$$$$

----------
Test system: SH-SY5Y
Assay: Antioxidant activity in human SH-SY5Y cells assessed as reduction in H2O2-induced reactive oxygen species formation measured after 24 hrs by DCFH-DA probe based fluorescence assay
Assay type: functional, cell-based
Details: Homo sapiens, SH-SY5Y, 24 h; read-out: IC50

>  <compound>
COc1cc(/C=C/C(=O)O)ccc1O [FERULATE]

>  <IC50 / µM>
11.8

$$$$
>  <compound>
COc1cc(/C=C/C(=O)OCC2CCN(Cc3ccccc3)CC2)ccc1O

>  <IC50 / µM>
16.9

$$$$
>  <compound>
COc1cc(/C=C/C(=O)OCC2CCN(Cc3ccc([N+](=O)[O-])cc3)CC2)ccc1O

>  <IC50 / µM>
25.9

$$$$
